All values here come from patent US20240018146A1.

- Test system: HeLa MKYP cells
- procedure-text: Human mitophagy assay (HeLa mKeima assay, FACS)
- Assay type: cell-based
- condition: Homo sapiens, HeLa; read-out: Mitophagy induction EC50
readout: EC50 (µM)
Field format: number, assumed µM, no unit text.

# annotated cases, reported EC50 shown
{"compound": "C[C@H]1CN([C@H]2CCc3ccccc3[C@@H]2Nc2ncnc3[nH]c(C4CC4)cc23)CCO1 (single isomer, unassigned)", "tested-target": "HeLa MKYP cells", "EC50 / µM": 0.07}
{"compound": "OC(C1CCOCC1)[C@H]1COc2ccccc2[C@@H]1Nc1ncnc2[nH]c(C(F)(F)F)cc12 (stereo partly shown)", "tested-target": "HeLa MKYP cells", "EC50 / µM": 1.53}
{"compound": "FC(F)(F)c1cc2c(N[C@H]3c4ccccc4CC[C@@H]3N3CCCOCC3)ncnc2[nH]1", "tested-target": "HeLa MKYP cells", "EC50 / µM": 3.66}

Could you now consider this next compound?
**Q:** Determine from records and report EC50 for C[C@@H]1CN([C@@H]2COc3cc(F)ccc3[C@H]2Nc2ncnc3[nH]c(C4CC4)cc23)C[C@H](C)O1
**A:** 0.01

* * *

- Tested on: HeLa MKYP cells
- procedure-text: Human mitophagy assay (HeLa mKeima assay, FACS)
- Format: cell-based
- condition: Homo sapiens, HeLa; read-out: Mitophagy induction EC50
readout: EC50 (nM)
Field format: number, assumed nM, no unit text.

{"molecule": "c1ccc2c(c1)CC[C@H](C1CCOCC1)[C@H]2Nc1ncnc2[nH]c(C3CC3)cc12 [EP-0040726]", "unit-of-measure": "nM", "observed-value": 20}
{"molecule": "C[C@@H]1CN([C@@H]2COc3cc(F)ccc3[C@H]2Nc2ncnc3[nH]c(C(F)(F)F)cc23)CCO1", "unit-of-measure": "nM", "observed-value": 120}
{"molecule": "COC1CN([C@H]2CCc3ccccc3[C@@H]2Nc2ncnc3[nH]c(C(F)(F)F)cc23)C1", "unit-of-measure": "nM", "observed-value": 310}

**Q:** Determine from records and report EC50 for C[C@@H]1CN([C@@H]2COc3cc(F)ccc3[C@H]2Nc2ncnc3[nH]c(C4CC4)cc23)CCO1
**A:** 11000

**Q:** Determine from records and report EC50 for C[C@H]1CN([C@@H]2COc3cc(F)ccc3[C@H]2Nc2ncnc3[nH]c(C4CC4)cc23)CCO1
**A:** 160

**Q:** Determine from records and report EC50 for C[C@@H]1CN([C@H]2CCc3ccccc3[C@@H]2Nc2ncnc3[nH]c(C4CC4)cc23)CCO1 (single isomer, unassigned)
**A:** 20

**Q:** Determine from records and report EC50 for C[C@@H]1CN([C@@H]2COc3ccccc3[C@H]2Nc2ncnc3[nH]c(C(F)(F)F)cc23)C[C@H](C)O1
**A:** 50

**Q:** Determine from records and report EC50 for FC(F)(F)c1cc2c(N[C@H]3c4ccccc4OC[C@@H]3N3CCOCC3)ncnc2[nH]1 [EP-0040078]
**A:** 1900

**Q:** Determine from records and report EC50 for FC(F)(F)c1cc2c(N[C@H]3c4ccccc4OC[C@@H]3N3C[C@H]4COC[C@H]4C3)ncnc2[nH]1
**A:** 770

**Q:** Determine from records and report EC50 for C[C@H]1CN([C@H]2COc3ccccc3[C@@H]2Nc2ncnc3[nH]c(C4CC4)cc23)CCO1
**A:** 140

**Q:** Determine from records and report EC50 for c1ccc2c(c1)OC[C@@H](C1CCOCC1)[C@@H]2Nc1ncnc2[nH]c(C3CC3)cc12
**A:** 60

**Q:** Determine from records and report EC50 for FC(F)(F)c1cc2c(N[C@H]3c4ccccc4CC[C@@H]3N3CC4(CCOCC4)C3)ncnc2[nH]1 (single isomer, unassigned)
**A:** 2590

**Q:** Determine from records and report EC50 for FC(F)(F)c1cc2c(N[C@H]3c4ccccc4CC[C@H]3OC3CCOCC3)ncnc2[nH]1 (single isomer, unassigned)
**A:** 9330
